Reported Ki is given for each of the following compounds.
molecular target: Pancreatic elastase (Sus scrofa, UniProt P08419+P00772); assay: Noncompetitive inhibition of porcine pancreatic elastase using Ac-Ala-Ala-Pro-Ala-p-nitroanilide as substrate by Dixon plot analysis; format: protein assay
// return numeric value only (unit: ×10⁻⁷ M, not printed)

Known Ki results, listed for orientation:
CC(=O)N[C@@H](C)C(=O)N[C@@H](C)C(=O)N1CCC[C@H]1C(=O)NN(C)C(=O)O[C@@H](C)C(N)=O :: 5
CC(=O)N[C@@H](C)C(=O)N[C@@H](C)C(=O)N1CCC[C@H]1C(=O)NN(C)C(=O)O[C@@H](C)C(=O)NCc1ccccc1 :: 8.5
CNC(=O)[C@H](C)OC(=O)N(C)NC(=O)[C@@H]1CCCN1C(=O)[C@H](C)NC(=O)[C@H](C)NC(C)=O :: 6.5
CC(=O)N1CCC[C@H]1C(=O)N[C@@H](C)C(=O)N1CCC[C@H]1C(=O)NN(C)C(=O)OC(C)C(N)=O (mixture of isomers) :: 4.5
CC(=O)N[C@@H](C)C(=O)N[C@@H](C)C(=O)N1CCC[C@H]1C(=O)NN(C)C(=O)O[C@@H](C)C(=O)Nc1ccccc1 :: 4.5

Field: next compound
Request: Quick one: Ki of CC(=O)N[C@@H](C)C(=O)N[C@@H](C)C(=O)N1CCC[C@H]1C(=O)NN(C)C(=O)O[C@@H](C)C(=O)NN ?
Result: 6.5

----------
Reported ID50 is given for each of the following compounds.
molecular target: Pancreatic elastase (Sus scrofa) (UniProt P08419+P00772); assay: Inhibition of porcine pancreatic elastase assessed as Ac-Ala-Ala-Pro-Ala-p-nitroanilide conversion to p-nitroaniline by spectrophotometric analysis; type: protein assay
*1 amine or outer side, *2 acyl side, *3 side chain or, on linkers, in order; H or OH if unused. Where a SMILES comes first, the peptide text is derived from it. [ ]: non-standard residue; d: D form. AzaAla = CN(N[*:1])C(=O)[*:2]
// return numeric value only (unit: µg/mL, not printed)

CCOC(=O)N(C)NC(=O)[C@@H]1CCCN1C(=O)[C@H](C)NC(=O)[C@@H]1CCCN1C(C)=O :: 60

Field: next compound
Request: Quick one: ID50 of CCOC(=O)[C@H](C)NC(=O)N(C)NC(=O)[C@@H]1CCCN1C(=O)[C@H](C)NC(=O)[C@H](C)NC(C)=O (Ac-AAP[AzaAla]A-OEt) ?
Result: 100

----------
biological target: Pancreatic elastase (Sus scrofa) (UniProt P08419+P00772); experiment: Inhibition of porcine pancreatic elastase assessed as Ac-Ala-Ala-Pro-Ala-p-nitroanilide conversion to p-nitroaniline by spectrophotometric analysis; assay type: protein assay
Friendly reminder: ID50 below 6 µg/mL is Condition met, at or above is Condition not met.

Request: Field: below-cutoff. Rule: recorded ID50 strictly less than 6 µg/mL. Subject: CCOC(=O)[C@H](Cc1ccccc1)OC(=O)N(C)NC(=O)[C@@H]1CCCN1C(=O)[C@H](C)NC(=O)[C@H](C)NC(C)=O
Result: Condition met

Request: Field: below-cutoff. Rule: recorded ID50 strictly less than 6 µg/mL. Subject: CCOC(=O)[C@H](C)OC(=O)[C@H](C)OC(=O)N(C)NC(=O)[C@@H]1CCCN1C(=O)[C@H](C)NC(=O)[C@H](C)NC(C)=O
Result: Condition met
